system: OVCAR-4; assay: NCI tumour cell line growth inhibition, 48 h
Activity calls are given as the source filed them. Rule as the data show it: active = GI50 up to about 1.1 µM and inactive = higher. Starred links: 1 amine or outer side, 2 acyl side, 3 side chain; linkers in the order of their positions; H or OH if unused. Non-standard residues stand in square brackets, D forms with d. Residues, ends and D or L forms follow the SMILES beside them. ξ: configuration not given here. X24 = O=C(C(CC(O)CO)O[*:1])[*:2]; Ile(3ξ) = CCC(C)[C@H](N)C(=O)O; NMeV = CN[C@H](C(=O)O)C(C)C; NMeA = CN[C@@H](C)C(=O)O; βAla = NCCC(=O)O
Consider the following compounds and their measured GI50 readings.

Use the examples below as a reference point.
CN1CCN(c2nc3cc(F)ccc3n3cccc23)CC1    30.3 µM (inactive)
COc1cc2c(cc1OCCCCCCCCN1C(=O)c3cccc4cccc(c34)C1=O)N=C[C@@H]1CCCN1C2=O    0.171 µM (active)
O=C(O)CNn1c(SCC(=O)O)nnc(/C=C/c2c(O)ccc3ccccc23)c1=O    14.1 µM (inactive)

Item under review: COCN1C(=O)[C@@H]2CCCN2C(=O)c2cc(OC)c(Cc3ccccc3)cc21 . Reported GI50? 43.7 µM (inactive)

Item under review: CCC(C)[C@@H]1NC(=O)[C@@H]2CCCN2C(=O)C(CC(O)CO)OC(=O)CCNC(=O)[C@H](C)N(C)C(=O)[C@H](C(C)C)N(C)C1=O (some centres undefined) (cyclo([Ile(3ξ)][NMeV][NMeA][βAla][X24]P)) . Reported GI50? > 100 µM (inactive)

Item under review: COC(=O)c1cc2/c(=N/O)c3ccccc3sc2o1 . Reported GI50? > 100 µM (inactive)

Item under review: O=C1NC2C=CN(Cc3ccccc3)C=C2C(=O)N2CCCC12 (centres undefined) . Reported GI50? > 100 µM (inactive)

Item under review: CCCCNC(=O)C1C2CCC(O2)C1C(=O)O (centres undefined) . Reported GI50? 29.6 µM (inactive)

Item under review: CC(C)(Cl)C(Br)CC/C(CBr)=C(/Cl)CCl.CC(C)(Cl)C(Br)CC/C(CBr)=C(\Cl)CCl (centres undefined) . Reported GI50? 2.74 µM (inactive)
